src = patent US12180194B2

Test system: Rtkn-GFP
ASSAY_NAME: ToxTracker genotoxicity assay, Rtkn-GFP reporter induction
MEASUREMENT_SETUP: GFP induction vs vehicle at 25% cytotoxicity; 24 h exposure, no S9
Provide the recorded Genotoxicity test, Without S9 rat liver extract, Rtkn, 25 for the entries that follow.
Report the figure in fold without appending any unit label.

Value of measured Genotoxicity test, Without S9 rat liver extract, Rtkn, 25 for the entry CCC(CN1CC1C)OC(=O)NCCCCCCn1c(=O)n(CCCCCCNC(=O)OC(CC)CN2CC2C)c(=O)n(CCCCCCNC(=O)OC(CC)CN2CC2C)c1=O (stereo not drawn) : 1.3

Value of measured Genotoxicity test, Without S9 rat liver extract, Rtkn, 25 for the entry CC(CN1CC1C)OC(=O)NCC1(C)CC(NC(=O)OC(C)CN2CC2C)CC(C)(C)C1 (stereo not drawn) [Comp. Ex. 7, reference compound] : 2.5

Value of measured Genotoxicity test, Without S9 rat liver extract, Rtkn, 25 for the entry CCCCOCC(CN1CC1C)OC(=O)NCCCCCC/N=c1\oc(=O)n(CCCCCCNC(=O)OC(COCCCC)CN2CC2C)c(=O)n1CCCCCCNC(=O)OC(COCCCC)CN1CC1C (stereo not drawn) : 1.0

Value of measured Genotoxicity test, Without S9 rat liver extract, Rtkn, 25 for the entry CCCCOCC(CN1CC1C)OC(=O)NC1CCC(CC2CCC(NC(=O)OC(COCCCC)CN3CC3C)CC2)CC1 (stereo not drawn) : 1.0

Value of measured Genotoxicity test, Without S9 rat liver extract, Rtkn, 25 for the entry CCCCOCC(CN1CC1C)OC(=O)Nc1ccc(C)c(NC(=O)OC(COCCCC)CN2CC2C)c1 (stereo not drawn) [Comp. Ex. 11, reference compound] : 2.1

Value of measured Genotoxicity test, Without S9 rat liver extract, Rtkn, 25 for the entry CC1CN1C1CCCCC1OC(=O)NCCCCCCn1c(=O)n(CCCCCCNC(=O)OC2CCCCC2N2CC2C)c(=O)n(CCCCCCNC(=O)OC2CCCCC2N2CC2C)c1=O (stereo not drawn) : 1.3
